# experimentalProtocol: Stability of the compound assessed as half life at pH 6
# Assay type: physicochemical
# experimentalContext: buffer
Starred links: 1 amine or outer side, 2 acyl side, 3 side chain; linkers in the order of their positions; H or OH if unused. Positions of bridges follow the written chain, without caps; N, C: chain ends. Non-standard residues stand in square brackets, D forms with d. Residues, ends and D or L forms follow the SMILES beside them. *: point of attachment. DAMPA = CN(Cc1cnc2nc(N)nc(N)c2n1)c1ccc(C(=O)*)cc1; γGlu = O=C(O)[C@H](CCC(=O)[*:2])N[*:1]; Pen = CC(C)(S)[C@H](N)C(=O)O
readoutLabel: half-life (min)
Answer format: numeric, min implied, no suffix.

Data request, read-out half-life, for CC(C)C[C@@H]1NC(=O)[C@H](C(C)C)NC(=O)[C@H](CO)NC(=O)CNC(=O)CNC(=O)[C@H](CCCNC(=N)N)NC(=O)[C@@H]2CCCN2C(=O)[C@@H](NC(=O)CC[C@H](NC(=O)c2ccc(N(C)Cc3cnc4nc(N)nc(N)c4n3)cc2)C(=O)O)C(C)(C)SSC[C@@H](C(=O)O)NC(=O)CNC(=O)[C@H]([C@@H](C)O)NC(=O)[C@H](C(C)C)NC1=O ({DAMPA-γGlu}-[Pen]PRGGSVLVTGC-OH; disulfide 1-12)
770
